Test system: SF-268 CNS
Experiment: NCI-60 one-dose screen, 48 h (100 = growth as untreated, 0 = no growth, -100 = all killed)
Settings: 10 µM unless noted
Method: Cells are grown in 96 well plates and exposed to the test compound for 48 hours. Compounds are tested at a single concentration, which is 10^-5 M for most compounds. The reported endpoint is percent growth (GI% or GIPRCNT), where numbers from 0 - 100% represent growth inhibition, and numbers from -100% - 0 represent cell death. For example, a value of 40 represents 60% growth inhibition. A value of 0 means no net growth occurred over the course of the experiment. […]
This is part of a sample that, as a whole, favours compounds with a hit. Of some 83,000 tested, about 20% had one in any assay.
Hi there, I'd appreciate the recorded growth for every entry that follows.
Note: unit % is implicit; provide only the numeric part.

[Q] Any idea what its growth is? The molecule is CC(=O)OC[C@@]1(C)C2CC[C@]3(C)C(CC=C4C5CC(C)(C)CC[C@]5(C(=O)Nc5ccc(C)cc5)CC[C@]43C)[C@@]2(C)C[C@@H](OC(C)=O)[C@@H]1OC(C)=O (some centres not stated)
[A] 57.4

[Q] Would you mind doing CC1(C)CC[C@]2(C(=O)Nc3ccc(F)cc3)CC[C@]3(C)C(=CCC4[C@@]5(C)C[C@@H](O)[C@H](O)[C@@](C)(CO)C5CC[C@]43C)C2C1 (some centres not stated) as well?
[A] 52.6

[Q] Would you mind doing S=C(NCCc1ccccc1)Nc1ccc(OCc2nc3ccccc3[nH]2)cc1 as well?
[A] 100

[Q] Would you mind doing Nc1cc2ccccc2c(=O)n1NC(=O)c1ccc(I)cc1 as well?
[A] 94.9

[Q] Would you mind doing COc1cc2c3c(n(CCCN4CCC[C@@H]4CO)c(=O)c2cc1OC)-c1cc2c(cc1C3=O)OCO2 as well?
[A] -60.8

[Q] Would you mind doing COc1ccc(-c2ccnc(SCc3cc4cc(Cl)ccc4[nH]c3=O)n2)cc1 as well?
[A] 0.935

[Q] Would you mind doing C=Cn1cc(C(=O)O)c(=O)c2cc(F)c(N3CCN(c4nccc(-c5nccs5)n4)CC3)cc21 as well?
[A] 22

[Q] Would you mind doing C=CC[N+](C)(C)CCn1c2ccccc2c2nc3cc(C)c(C)cc3nc21 as well?
[A] 56.1

[Q] Would you mind doing CCCCCCCCc1ccc(C(=O)Nc2ccc(C)cc2C(=O)O)cc1C as well?
[A] 99.9

[Q] Would you mind doing COc1ccc(-c2nc(SC(C)C)nc(NCCc3c[nH]c4ccccc34)c2C#N)cc1 as well?
[A] 49.8

[Q] Would you mind doing COc1c(F)ccc(C(=O)Nc2ccc3nc(NC(=O)C4CCCN(S(=O)(=O)C5CC5)C4)sc3c2)c1F (configuration not stated) as well?
[A] 76.2

[Q] Would you mind doing N#Cc1c(-c2cccc(Cl)c2Cl)cc(-c2c[nH]c3ccccc23)[nH]c1=O as well?
[A] 89.7

###

System: LOX IMVI melanoma
Assay: NCI-60 one-dose screen, 48 h
Conditions: 10 µM
This is part of a sample that, as a whole, favours compounds with a hit. Of some 83,000 tested, about 20% had one in any assay. The source made the active and inactive calls. Rule for the calls: active = growth percent below 10; inactive = the rest.
Parameter call: string, one of yes (active), no (inactive)

[Q] Kindly provide the recorded test outcome for the following compound: Cc1cc(C)cc(NC(=O)Cn2cc(COn3nnc4ccccc43)nn2)c1
[A] no

[Q] Would you mind doing CC(C)CSc1nc(NCCc2c[nH]c3ccccc23)c(C#N)c(-c2ccc(Cl)cc2)n1 as well?
[A] no

[Q] Would you mind doing COc1ccc(-c2nc3ccc(C(=O)NN4C(=O)c5ccc([N+](=O)[O-])cc5C4=O)cc3[nH]2)cc1 as well?
[A] no

[Q] Would you mind doing Cn1cc(NC(=O)c2cc(NC(=O)c3ccc(C#Cc4ccccc4)cc3)cn2C)cc1C(=O)NCCCN1CCOCC1 as well?
[A] yes

[Q] Would you mind doing C#CCOc1ccc(/C=N/Nc2nc(-c3ccc(F)cc3)cs2)cc1OC as well?
[A] no

[Q] Would you mind doing COc1cc(-c2nc3ccc(C)cc3[nH]2)ccc1OCc1nnc(-c2ccc(Br)cc2)o1 as well?
[A] no

[Q] Would you mind doing CC(C)C(C(=O)O)n1c(O)c(/C=C2/C=c3cc4c(cc3=NC2=O)OCO4)sc1=S (configuration not stated) as well?
[A] no

[Q] Would you mind doing Cn1cc(-c2cc(N)n3nc(-c4cn(C)c5ccccc45)cc3n2)c2cc(Br)ccc21 as well?
[A] yes

[Q] Would you mind doing CN1CCN(c2ccc(C(=O)/C=C/c3ccc(Br)cc3)cc2)CC1 as well?
[A] yes

[Q] Would you mind doing COc1ccc2c(c1)c(-c1cc3nc(-c4cn(C)c5ncc(Br)cc45)cc(N)n3n1)cn2C as well?
[A] yes

[Q] Would you mind doing CC1(C)CC[C@]2(C(=O)O)CC[C@]3(C)C(=CCC4[C@@]5(C)C[C@@H](O)[C@@H]6OC(c7ccc(F)cc7)OC[C@@]6(C)C5CC[C@]43C)C2C1 (some centres not stated) as well?
[A] no

[Q] Would you mind doing Cc1ccc2c(c1)nc(-c1ccccc1)n2CC(=O)N=Nc1c(O)[nH]c2ccc(Br)cc12 as well?
[A] yes

###

Tested on: CCRF-CEM leukemia
Test: NCI-60 one-dose screen, 48 h (100 = growth as untreated, 0 = no growth, -100 = all killed)
Conditions: 10 µM unless noted
The panel holds about 83,000 compounds, 20% with a hit somewhere; the sample as a whole holds those more often.
endpoint name: growth (%)
Note: unit % is implicit; provide only the numeric part.

[Q] Short answer please: growth, CCRF-CEM leukemia, entry O=C(COc1ccc(NC(=O)Nc2ccc(Cl)cc2)cc1)N/N=C/c1ccccc1
[A] -13.7

[Q] Would you mind doing Cn1cc(-c2cc(N)n3nc(-c4cn(C)c5ccccc45)cc3n2)c2cc(Br)ccc21 as well?
[A] -4.52

[Q] Would you mind doing CC1(c2cc3cc(Br)ccc3oc2=O)NC(=O)c2c(/C=C/C(=O)OC3CC4CCC3(C)C4(C)C)cccc2N1 (stereo not given) as well?
[A] 82.2

[Q] Would you mind doing COc1ccc2oc(=O)c(C3(C)NC(=O)c4c(/C=C/C(=O)OC(C)(C)C)cccc4N3)cc2c1 (stereo not given) as well?
[A] 32.1

[Q] Would you mind doing COc1cc(CNC(=O)/C=C/c2ccc3c(c2)OCO3)ccc1OCc1cn(-c2cccc(C(F)(F)F)c2)nn1 as well?
[A] 52.2

[Q] Would you mind doing O=C(Cn1c(/C=C/c2ccccc2)nc2ccccc2c1=O)Nc1ccc(Cl)cc1 as well?
[A] 85.6

[Q] Would you mind doing COc1ccc(-c2c(Nn3cnnn3)no[n+]2[O-])cc1 as well?
[A] 40.6

[Q] Would you mind doing COc1ccc(C(=O)/C=C/c2ccccc2Cl)cc1S(N)(=O)=O as well?
[A] 111

[Q] Would you mind doing CC(=O)NNc1ccc2nnc(-c3ccccc3)n2n1 as well?
[A] 108

[Q] Would you mind doing O=C(O)c1ccc(-c2ccc(/C=N/NC(=O)c3[nH]c4ccc(Br)cc4c3-c3ccccc3)s2)cc1 as well?
[A] 7.68

[Q] Would you mind doing C/C(=N\Nc1ccc(S(N)(=O)=O)cc1)c1ccc(N=Nc2c(Nc3ccccc3)[nH][nH]c2=O)cc1 as well?
[A] 3.59

[Q] Would you mind doing CC(=O)Oc1ccccc1C(=O)[Se]CC(=O)Nc1cccc(C(F)(F)F)c1 as well?
[A] 24.6

[Q] Would you mind doing Cc1cc2nc3c4ccccc4n(CCCN(C)C)c3nc2cc1C as well?
[A] 0.177

[Q] Would you mind doing COc1ccc(/C=N/NC(=O)Cn2nc(Cc3ccc(OC)cc3)c3onc(C)c3c2=O)cc1 as well?
[A] 75.5

[Q] Would you mind doing COC(OC)C1=C(C)OC(N)=C(C#N)C12C(=O)Nc1ccccc12 (stereo not given) as well?
[A] 54.6

###

Tested on: DU-145 prostate
Assay: NCI-60 one-dose screen, 48 h (100 = growth as untreated, 0 = no growth, -100 = all killed)
Details: 10 µM unless noted
The panel holds about 83,000 compounds, 20% with a hit somewhere; the sample as a whole holds those more often. Activity calls are given as the source filed them. Rule for the calls: active = growth percent below 10; inactive = the rest.
Hi there, I'd appreciate the recorded growth for every entry that follows.

[Q] Any idea what its growth is? The compound is COc1ccc(-c2nc(SCC(C)C)nc(NCCc3c[nH]c4ccccc34)c2C#N)cc1
[A] 77.2% (inactive)

[Q] Would you mind doing CC1(C)CC[C@]2(C(=O)Nc3ccc(F)cc3)CC[C@]3(C)C(=CCC4[C@@]5(C)C[C@@H](O)[C@H](O)[C@@](C)(CO)C5CC[C@]43C)C2C1 (some centres not stated) as well?
[A] 59.7% (inactive)

[Q] Would you mind doing CCN1C(=O)/C(=N\N=C(/C)c2ccc3c(c2)Nc2ccccc2S3)c2cc(Cl)ccc21 as well?
[A] 71.8% (inactive)

[Q] Would you mind doing Cn1cc(-c2cc3nc(-c4c[nH]c5ccc(Br)cc45)cc(N)n3n2)c2ccccc21 as well?
[A] -85.7% (active)

[Q] Would you mind doing Cc1sc2c(c1C)C(c1ccc(Cl)cc1)=N[C@@H](CC(=O)NCCCCCNC(=O)COc1ccc(C3CCC(=O)NC3=O)cc1)c1nnc(C)n1-2 (some centres not stated) as well?
[A] 88.5% (inactive)

[Q] Would you mind doing O=C(O)c1ccc(-c2ccc(/C=N/NC(=O)c3[nH]c4ccc(Br)cc4c3-c3ccccc3)o2)cc1 as well?
[A] 38.8% (inactive)

[Q] Would you mind doing COc1cc2oc(-c3cccc(C(=O)Nc4cccc([N+](=O)[O-])c4)c3)cc(=O)c2c(OC)c1OC as well?
[A] 29.5% (inactive)
